The origin of these recorded values is ChEMBL document CHEMBL1139131.

# target.desc: Cannabinoid receptor 2 (Homo sapiens, UniProt P34972)
# Sequence (P34972 whole entry): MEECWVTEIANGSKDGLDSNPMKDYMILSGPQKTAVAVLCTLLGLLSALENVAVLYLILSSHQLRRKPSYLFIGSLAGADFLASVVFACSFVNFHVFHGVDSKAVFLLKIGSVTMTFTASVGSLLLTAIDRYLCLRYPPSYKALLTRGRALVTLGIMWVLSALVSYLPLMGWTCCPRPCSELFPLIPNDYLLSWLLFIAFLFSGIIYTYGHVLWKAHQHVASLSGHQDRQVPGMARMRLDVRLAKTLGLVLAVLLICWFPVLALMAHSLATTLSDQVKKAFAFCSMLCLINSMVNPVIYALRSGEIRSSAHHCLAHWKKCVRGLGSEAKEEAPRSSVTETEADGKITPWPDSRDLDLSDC
pIC50: −log10 of the molar value.

compound	pIC50
COc1ccc(Oc2nc(-c3ccc(Cl)cc3Cl)c(-c3ccc(Cl)cc3)cc2C#N)cc1	5.42
N#Cc1cc(-c2ccc(Cl)cc2)c(-c2ccc(Cl)cc2Cl)nc1OCCNC(=O)C1CCC1	6.35
N#Cc1cc(-c2ccc(Cl)cc2)c(-c2ccc(Cl)cc2Cl)nc1Oc1cc(Cl)cc(Cl)c1	5.25
CC(C)(O)C#Cc1nc(-c2ccccc2Cl)c(-c2ccc(Cl)cc2)cc1C#N	5.74
N#Cc1cc(-c2ccc(Cl)cc2)c(-c2ccc(Cl)cc2Cl)nc1Nc1ccc(F)cc1	5.55
NC(=O)c1cc(-c2ccc(Cl)cc2)c(-c2ccc(Cl)cc2Cl)nc1Oc1ccc(F)c(F)c1	5.31
CC(C)N1CCN(c2nc(-c3ccccc3Cl)c(-c3ccc(Cl)cc3)cc2C#N)C(=O)C1=O	6.15
N#Cc1cc(-c2ccc(Cl)cc2)c(-c2ccc(Cl)cc2Cl)nc1OCC1CCOC1 (centres undefined)	6.37
N#Cc1cc(-c2ccc(Cl)cc2)c(-c2ccc(Cl)cc2Cl)nc1Oc1cccc(F)c1	5.64
N#Cc1cc(-c2ccc(Cl)cc2)c(-c2ccccc2Cl)nc1-c1cncnc1	5.37
CC(C)(C)C(=O)Nc1nc(-c2ccc(Cl)cc2Cl)c(-c2ccc(Cl)cc2)cc1C#N	5.77
CC(C)(C)N1CCN(c2nc(-c3ccccc3Cl)c(-c3ccc(Cl)cc3)cc2C#N)CC1	5.59
N#Cc1cc(-c2ccc(Cl)cc2)c(-c2ccccc2Cl)nc1N1CCN(S(=O)(=O)c2cc(F)cc(F)c2)CC1	5.85
N#Cc1cc(-c2ccc(Cl)cc2)c(-c2ccccc2Cl)nc1Oc1ccc(F)c(F)c1	5.24
